Value source: PubChem BioAssay (NCI)

Kindly state growth for each of the entries shown.
tested on: HT29 colon; assay: NCI-60 one-dose screen, 48 h (100 = growth as untreated, 0 = no growth, -100 = all killed); conditions: 10 µM unless noted
Compounds without any hit were thinned out: in the full panel of roughly 83,000, 20% have a hit.
Give the quantity in %, number only.

*Q* growth for `Cc1ccc(Oc2nc3ccccc3cc2-c2nnc(Cn3c(COc4ccccc4)nc4ccccc43)o2)cc1` ?
*A* 4.53

*Q* growth for `COc1ccc(-c2nnc(COc3ccc(NS(=O)(=O)c4ccc(OC)cc4)cc3F)o2)cc1` ?
*A* 91.1

*Q* growth for `CCCn1c(=S)sc2c(Cl)nc(C)nc21` ?
*A* 84

*Q* growth for `O=C1c2ccccc2C(=O)c2c1oc1oc3c(c(=O)c21)c(=O)n(-c1ccccc1)c1ccccc31` ?
*A* 84.2

*Q* growth for `Cn1c(-c2nonc2NC(=O)c2ccc(F)cc2)nc2ccccc21` ?
*A* 101

*Q* growth for `C=CCn1c(C)nc2ccc(Nc3nc(Nc4ccc(F)cc4)nc4ccccc34)cc21` ?
*A* 18.7

*Q* growth for `CCCCCCCCCCC/C=C\C[C@H](O)C/C=C1/C(=O)C=C[C@@H]1C/C=C\CCCC(=O)OC` ?
*A* -22.5

*Q* growth for `O=C(O)c1ccc(-n2c(=O)c3ccccc3c3ccccc3c2=O)cc1` ?
*A* 98.5

*Q* growth for `Cc1cc(C)c(S(=O)(=O)N2CCN(c3cc4c(cc3F)c(=O)c(C(=O)O)cn4C3CC3)CC2)c(C)c1` ?
*A* 28.3

*Q* growth for `O=C1Nc2ccc(Br)cc2C1=N/C=c1\[nH]c(=O)/c(=C/c2ccc(Cl)cc2)s1` ?
*A* 97.9

*Q* growth for `COc1ccc(/C(=N/O)c2cc(OC)c(OC)c(OC)c2)c(OC)c1N` ?
*A* 13.7

*Q* growth for `COc1cc(C(=O)/C=C/c2cc(C(=O)c3cc(OC)c(OC)c(OC)c3)ccc2OC)ccc1N` ?
*A* -58.3

*Q* growth for `COc1ccc(/C=C/c2nc(N3CCOCC3)c3cc(F)c(F)cc3n2)cc1OC` ?
*A* 42.4

*Q* growth for CCC1CCc2nc3sc(C(=O)Nc4cccc(C)c4)c(N)c3cc2C1 (stereo not drawn) ?
*A* 47.6

*Q* growth for `CC1=CNNc2c3ncnc-3ncn21` ?
*A* 104

*Q* growth for `COc1ccc(-c2cn[nH]c2-c2cc(OC)c3c(c2)OCCO3)cc1` ?
*A* 1.7

*Q* growth for `COc1ccc(C(=O)/C=C/c2ccc(/C=C/c3cc(OC)c(OC)c(OC)c3)cc2)cc1` ?
*A* 36.2

*Q* growth for `COC(=O)c1cc(-c2cccs2)c(C#N)c(N)c1C#N` ?
*A* 106

*Q* growth for `O=S(=O)(c1ccccc1)n1ccc(-c2ccc3c(c2)CCO3)n1` ?
*A* 92.8

*Q* growth for `Cc1cccc(NC(=O)c2sc3nc4c(cc3c2N)CCCC4)c1` ?
*A* 15.4

*Q* growth for `C=C1C(=O)O[C@H]2[C@H](O)[C@@H](C)CCC/C(C)=C/CC[C@@]3(C)O[C@@H]3C[C@@H]12` ?
*A* 99.6

*Q* growth for `COc1ccc2c(c1)NC(=O)CN2c1nc(C)nc2ccccc12` ?
*A* 3.4

*Q* growth for `CCN(C(=O)c1cc2ncccc2[nH]1)[C@H]1CCC[C@@H](NCc2cccc(F)c2)C1` ?
*A* 105

*Q* growth for `COc1cc(OC)cc(-c2n[nH]nc2-c2ccc3c(c2)OCO3)c1` ?
*A* 1

*Q* growth for COc1cc(C2C=C(C)N=C3SC=C(C)N32)cc(OC)c1OC (stereo not drawn) ?
*A* -37.2

*Q* growth for `O=C(/C=C/CN1CCOCC1)Nc1cc2c(Nc3cccc(Cl)c3F)ncnc2cc1OCCOC(F)F` ?
*A* 66.3

*Q* growth for `CC(=O)n1cc([C@H]2CC[C@H](c3cn(C(C)=O)c4ccccc34)c3c2[nH]c2ccccc32)c2ccccc21` ?
*A* 67.7

*Q* growth for `CC(C)(C)c1ccc(S(=O)(=O)Oc2ccc3c4c(c(=O)oc3c2)CCCCC4)cc1` ?
*A* 15.8
